Note to self: these compounds have pIC50 reported for ALK tyrosine kinase receptor (Homo sapiens, UniProt Q9UM73) in various publications.
pIC50: −log10 of the molar value.

Value (pIC50, ALK tyrosine kinase receptor (Homo sapiens, UniProt Q9UM73)) for record `C[C@@H](Oc1cc(C(=O)Nc2ccc(C(=O)N3CCCNCC3)cc2)nnc1N)c1c(Cl)ccc(F)c1Cl` = > 9.00

Form field, pIC50 with ALK tyrosine kinase receptor (Homo sapiens, UniProt Q9UM73), item `Cc1noc2c1/C=C/c1n[nH]c3ccc(cc13)-c1cnn(C)c1OCCOC2` : 7.68

So the reported pIC50 for `COc1ccc2c(ccn2C[C@H](O)CNc2cc[nH]c(=O)c2-c2nc3cc4c(cc3[nH]2)CN(C2CCN(C)CC2)C4=O)c1` , on ALK tyrosine kinase receptor (Homo sapiens, UniProt Q9UM73), turned out to be 4.82 to 5.30

Query `CCCN1CCC(c2ccc(Nc3nc(Nc4cc(F)ccc4C(N)=O)c4cc[nH]c4n3)c(OC)c2)CC1` on ALK tyrosine kinase receptor (Homo sapiens, UniProt Q9UM73); pIC50 returned: 9.00 to 9.60

The compound `COc1cc2c(cc1Nc1nc(Nc3ccc(F)c(F)c3C(=O)NC(C)C)c3cc[nH]c3n1)N(C(=O)CN(C)C)CC2` , tested on ALK tyrosine kinase receptor (Homo sapiens, UniProt Q9UM73), showed pIC50 of 8.40 to 8.90

Measured pIC50 (ALK tyrosine kinase receptor (Homo sapiens, UniProt Q9UM73)), entry `Cc1n[nH]c2nc(-c3cc(Br)c(O)c(Br)c3F)c(C#N)c(-c3ccco3)c12` : 5.00 to 6.00

# pIC50 measured on ALK tyrosine kinase receptor (Homo sapiens, UniProt Q9UM73) for item `O=C1c2cc3nc(-c4c(NC[C@@H](O)COc5c(F)ccc(Cl)c5F)cc[nH]c4=O)[nH]c3cc2C(=O)N1C1CCN(CCO)CC1` = 5.30 to 6.30

GET /values?item= `Cc1n[nH]c2nc(-c3ccc(O)cc3)c(C#N)c(-c3ccc(-c4ccc(S(N)(=O)=O)cc4)o3)c12` &system= ALK tyrosine kinase receptor (Homo sapiens, UniProt Q9UM73) returns pIC50: 6.00 to 7.00

* * *

Below are pIC50 values for ALK tyrosine kinase receptor (Homo sapiens, UniProt Q9UM73) collected from several publications.
pIC50: −log10 of the molar value.

Short answer on ALK tyrosine kinase receptor (Homo sapiens, UniProt Q9UM73) for `CNC(=O)c1cc2ccccc2cc1Nc1nc(Nc2cc3c(cc2OC)CCN3C(=O)CN(C)C)nc2[nH]ccc12` , pIC50: 6.70 to 8.30

Reading of pIC50 for `Cc1n[nH]c2nc(-c3ccc(O)cc3F)c(C#N)c(-c3ccc(N4CCNCC4)cc3)c12` with ALK tyrosine kinase receptor (Homo sapiens, UniProt Q9UM73): > 7.00

Summary line: `CS(=O)(=O)c1ccc(CNC(=O)c2cccc(-c3cnc4c(c3)N(Cc3cc(Cl)ccc3C(F)(F)F)CCN4)c2)cc1` , ALK tyrosine kinase receptor (Homo sapiens, UniProt Q9UM73), reported pIC50 = 6.00 to 7.00

pIC50 for ALK tyrosine kinase receptor (Homo sapiens, UniProt Q9UM73) with input `O=C(NCc1ccccc1)c1cnc2c(c1)N(Cc1cc(Cl)ccc1Cl)CCN2` equals 6.00 to 7.00

The compound `Cc1n[nH]c2nc(-c3ccc(O)cc3F)c(C#N)c(-c3ccc(OCCCN4CCNCC4)cc3)c12` on ALK tyrosine kinase receptor (Homo sapiens, UniProt Q9UM73): pIC50 was > 7.00

// pIC50 (ALK tyrosine kinase receptor (Homo sapiens, UniProt Q9UM73)) for `Cc1cc(Nc2ncc(Cl)c(Nc3ccccc3N(C)S(=O)(=O)C3CC3)n2)c(OC(C)C)cc1C1=CCN(C2CCOCC2)CC1` = 9.22

Fill in: ALK tyrosine kinase receptor (Homo sapiens, UniProt Q9UM73) pIC50 for `CN1CCC(N2C(=O)c3cc4nc(-c5c(NC[C@@H](O)COc6ccc7c8c6CCCN8CCC7)cc[nH]c5=O)[nH]c4cc3C2=O)CC1` = 5.30 to 6.30

Tested on ALK tyrosine kinase receptor (Homo sapiens, UniProt Q9UM73): `COc1cc(N2CCOC[C@@H]2C)ccc1Nc1nc(Nc2cc(F)ccc2C(N)=O)c2cc[nH]c2n1` . Observed pIC50: 8.40 to 8.90

# pIC50 measured on ALK tyrosine kinase receptor (Homo sapiens, UniProt Q9UM73) for item `COc1cc(N2CCN(C)CC2)ccc1Nc1ncc(C)c(Nc2ccc3cn[nH]c3c2)n1` = 8.15

Field pIC50 (system: ALK tyrosine kinase receptor (Homo sapiens, UniProt Q9UM73)) for entry `Cc1cc(-c2nc3[nH]nc(N)c3c(-c3ccc(N4CCNCC4)cc3)c2C#N)c(F)cc1O` = > 7.00

The compound `CCCN1CCC=C(c2ccc(Nc3nc(Nc4ccc(OC)cc4C(N)=O)c4cc[nH]c4n3)c(C)c2)C1` , tested on ALK tyrosine kinase receptor (Homo sapiens, UniProt Q9UM73), showed pIC50 of 8.40 to 8.90

Entry `C[C@H](Oc1cc(C(=O)Nc2ccc(C(=O)N3CCN(C)CC3)cc2)nnc1N)c1c(Cl)ccc(F)c1Cl` under ALK tyrosine kinase receptor (Homo sapiens, UniProt Q9UM73) had pIC50 of < 7.30

pIC50 on ALK tyrosine kinase receptor (Homo sapiens, UniProt Q9UM73) for `O=C(c1ccc(-c2cnc3c(c2)N(Cc2cc(F)ccc2F)C(=O)CN3)cc1)N1CCC(N2CCCC2)CC1` is 6.00 to 7.00

Tested on ALK tyrosine kinase receptor (Homo sapiens, UniProt Q9UM73): `N#Cc1cc2c(-c3ccc(N4CCNCC4)cc3)n[nH]c2nc1-c1ccc(O)cc1` . Observed pIC50: > 7.00

ALK tyrosine kinase receptor (Homo sapiens, UniProt Q9UM73) assay, compound `CNC(=O)c1c(F)cccc1Nc1nc(Nc2cc3c(cc2OC)CCCN3C(=O)[C@@H]2CCCN2C)nc2[nH]ccc12` , recorded pIC50 = 6.70 to 8.30

Form field, pIC50 with ALK tyrosine kinase receptor (Homo sapiens, UniProt Q9UM73), item `CCCN1CCC(c2ccc(Nc3nc(Nc4cc(F)cc(F)c4C(N)=O)c4cc[nH]c4n3)c(OC)c2)CC1` : 9.00 to 9.60

Item: Cc1cc(OCC(O)CNc2cc[nH]c(=O)c2-c2nc3cc4c(cc3[nH]2)C(=O)N(C2CCN(C)CC2)C4=O)ccc1Cl (stereo not shown) | System: ALK tyrosine kinase receptor (Homo sapiens, UniProt Q9UM73) | pIC50: < 4.82

pIC50 on ALK tyrosine kinase receptor (Homo sapiens, UniProt Q9UM73) for `Cc1ccc(OC[C@H](O)CNc2cc[nH]c(=O)c2-c2nc3cc4c(cc3[nH]2)C(=O)N(C2CCN(CCCO)CC2)C4=O)c(C)c1` is 5.30 to 6.30

Bench note, ALK tyrosine kinase receptor (Homo sapiens, UniProt Q9UM73): Cc1ccc(OCC(O)CNc2cc[nH]c(=O)c2-c2nc3cc4c(cc3[nH]2)C(=O)N(C2CCN(C)CC2)C4=O)cc1C (stereo not shown) , pIC50 reads 4.82 to 5.30
